Collected IC85 values appear next to each entry.
System: E. coli biofilms
Test description: Biofilm growth assay (spreading biofilm on semi-solid agar), E. coli
Assay type: cell-based
Condition label: Escherichia coli, biofilm growth assay, overnight 37° C., vs negative controls; Tables 1-5; read-out: E. coli: concentration that reduces the area of the spreading biofilm by greater than or equal to 85%
Dear colleague, please return just the value in µg/mL, with no unit written.

CC1(C)CC[C@]2(c3n[nH]c(O)c3CCNC(N)=O)CC[C@]3(C)C(=CCC4[C@@]5(C)Cc6c(n[nH]c6N)C(C)(C)C5CC[C@]43C)C2C1 (some centres unmarked) [Compound 87] ... 1
CC1(C)CC[C@]2(C(=O)O)CC[C@]3(C)C(=C(c4c[nH]c(CN5CCOCC5)c4)CC4[C@@]5(C)Cc6c(n[nH]c6N)C(C)(C)[C@@H]5CC[C@]43C)[C@@H]2C1 (some centres unmarked) [Example 9] ... 1
CNc1[nH]nc2c1C[C@@]1(C)C(CC[C@]3(C)C1CC=C1C4CC(C)(C)CC[C@]4(C(=O)O)CC[C@]13C)C2(C)C (some centres unmarked) [I] ... 8
CC1(C)CC[C@]2(c3n[nH]c(O)c3CCN)CC[C@]3(C)C(=C(c4ccoc4CN4CCOCC4)CC4[C@@]5(C)Cc6c(n[nH]c6N)C(C)(C)[C@@H]5CC[C@]43C)[C@@H]2C1 (some centres unmarked) [Compound 92] ... 2
CC1(C)CC[C@]2(C(=O)n3ccnc3N)CC[C@]3(C)C(=CCC4[C@@]5(C)Cc6c(n[nH]c6N)C(C)(C)C5CC[C@]43C)C2C1 (some centres unmarked) [Compound 73] ... 1
CC1=C2[C@@H]3CC(C)(C)CC[C@]3(C(=O)O)CC[C@@]2(C)[C@]2(C)CC[C@H]3C(C)(C)c4n[nH]c(N)c4C[C@]3(C)C2C1 (some centres unmarked) [Example 4] ... 1
CC1(C)CC[C@]2(C(=O)Nc3cc(S)n[nH]3)CC[C@]3(C)C(=CCC4[C@@]5(C)Cc6c(n[nH]c6N)C(C)(C)C5CC[C@]43C)C2C1 (some centres unmarked) [Compound 79] ... 0.5

Now for another entry.
Query: Data request, read-out IC85, for CC1(C)CC[C@]2(C(N)=O)CC[C@]3(C)C(=CCC4[C@@]5(C)Cc6c(n[nH]c6N)C(C)(C)[C@@H]5CC[C@]43C)[C@@H]2C1 (some centres unmarked) [Compound 62]
Response: 1

----------
Counter-ions that a name gives are not always drawn.
Collected melting point values appear next to each entry.

C[C@H]1[C@H](C)CC[C@]2(C(=O)O)CC[C@]3(C)C(=CCC4[C@@]5(C)Cc6c(n[nH]c6N)C(C)(C)[C@@H]5CC[C@]43C)[C@H]12 (stereo partly shown) (as salt: ammonium) ... 258 to 278 °C
CC1(C)CC[C@]2(C(=O)O)CC[C@]3(C)C(=C(c4ccco4)CC4[C@@]5(C)Cc6c(n[nH]c6N)C(C)(C)[C@@H]5CC[C@]43C)[C@@H]2C1 (stereo partly shown) (as salt: ammonium) ... 250 to 270 °C (dec.)
CC1=C2[C@@H]3CC(C)(C)CC[C@]3(C(=O)O)CC[C@@]2(C)[C@]2(C)CC[C@H]3C(C)(C)c4n[nH]c(N)c4C[C@]3(C)C2C1 (stereo partly shown) (as salt: ammonium) ... > 300 °C

Query: Data request, read-out melting point, for CC1(C)CC[C@]2(C(=O)n3ccnc3N)CC[C@]3(C)C(=CCC4[C@@]5(C)Cc6c(n[nH]c6N)C(C)(C)C5CC[C@]43C)C2C1 (stereo partly shown) (as salt: ammonium)
Response: 230 to 250 °C (dec.)

Query: Data request, read-out melting point, for C=CC1=C2[C@@H]3CC(C)(C)CC[C@]3(C(=O)O)CC[C@@]2(C)[C@]2(C)CC[C@H]3C(C)(C)c4n[nH]c(N)c4C[C@]3(C)C2C1 (stereo partly shown)
Response: > 300 °C

Query: Data request, read-out melting point, for CC1(C)CC[C@]2(C(=O)n3cnc(S)n3)CC[C@]3(C)C(=CCC4[C@@]5(C)Cc6c(n[nH]c6N)C(C)(C)C5CC[C@]43C)C2C1 (stereo partly shown) (as salt: ammonium)
Response: 260 to 280 °C (dec.)
